# System under test: GST-Bcl-2 (Homo sapiens (Human))
# Sequence (P10415 whole entry): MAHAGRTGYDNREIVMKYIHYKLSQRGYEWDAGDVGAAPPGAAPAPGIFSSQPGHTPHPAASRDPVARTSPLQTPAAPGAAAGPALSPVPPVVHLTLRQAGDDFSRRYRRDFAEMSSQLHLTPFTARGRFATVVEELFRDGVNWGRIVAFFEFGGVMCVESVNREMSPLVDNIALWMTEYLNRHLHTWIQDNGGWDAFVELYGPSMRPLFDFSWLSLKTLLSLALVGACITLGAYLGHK
# Measurement notes: Time Resolved-Fluorescence Resonance Energy Transfer (TR-FRET) Bcl-2 binding assay
# Run conditions: GST-Bcl-2 1 nM, F-Bak peptide probe 100 nM, Tb-anti-GST antibody 1 nM; Ki by Wang's equation
pKi: −log10 of the molar value.
Classes (pKi): lo (below 9), mid (9 to below 10), hi (10 or more)

| Molecule | System under test | Group label |
| --- | --- | --- |
| CC1(C)CCC(CN2CCN(c3ccc(C(=O)NS(=O)(=O)c4ccc(NCC5CCOCC5)c([N+](=O)[O-])c4)c(Oc4cc5cc[nH]c5cc4Cl)c3)CC2)=C(c2ccc(Cl)cc2)C1 | GST-Bcl-2 (Homo sapiens (Human)) | mid |
| CC1(C)CCC(CN2CCN(c3ccc(C(=O)NS(=O)(=O)c4ccc(NC5CCN(C6CCOCC6)CC5)c([N+](=O)[O-])c4)c(Oc4ccnc(NC(=O)OC(C)(C)C)c4)c3)CC2)=C(c2ccc(Cl)cc2)C1 | GST-Bcl-2 (Homo sapiens (Human)) | lo |
| COc1cccc(Oc2cc(N3CCN(Cc4ccccc4-c4ccc(Cl)cc4)CC3)ccc2C(=O)NS(=O)(=O)c2ccc(NCC3CCOCC3)c([N+](=O)[O-])c2)c1 | GST-Bcl-2 (Homo sapiens (Human)) | lo |
| CC1(C)CCC(CN2CCN(c3ccc(C(=O)NS(=O)(=O)c4ccc(NCC5CN(C6CC6)CCO5)c([N+](=O)[O-])c4)c(Oc4cnc(N)c(Cl)c4)c3)CC2)=C(c2ccc(Cl)cc2)C1 (centres unmarked) | GST-Bcl-2 (Homo sapiens (Human)) | hi |
| CN(C)CCCNc1ccc(S(=O)(=O)NC(=O)c2ccc(N3CCN(Cc4ccccc4-c4ccc(Cl)cc4)CC3)cc2Oc2cccc3c2ccn3C)cc1[N+](=O)[O-] | GST-Bcl-2 (Homo sapiens (Human)) | lo |
| CC1(C)CCC(CN2CCN(c3ccc(C(=O)NS(=O)(=O)c4ccc(NCC5CCOCC5)c([N+](=O)[O-])c4)c(Oc4ccc5[nH]cc(Cl)c5c4)c3)CC2)=C(c2ccc(Cl)cc2)C1 | GST-Bcl-2 (Homo sapiens (Human)) | mid |
| CN1CCC(Nc2ccc(S(=O)(=O)NC(=O)c3ccc(N4CCN(CC5=C(c6ccc(Cl)cc6)CC(C)(C)CC5)CC4)cc3Oc3cccc4c3CC(=O)N4)cc2[N+](=O)[O-])CC1 | GST-Bcl-2 (Homo sapiens (Human)) | hi |
| CC(c1ccccc1-c1ccc(Cl)cc1)N1CCN(c2ccc(C(=O)NS(=O)(=O)c3ccc(NC4CCN(C)CC4)c([N+](=O)[O-])c3)c(Oc3ccccc3Cl)c2)CC1 (centres unmarked) | GST-Bcl-2 (Homo sapiens (Human)) | hi |
| Cn1cnc2cc(Oc3cc(N4CCN(Cc5ccccc5-c5ccc(Cl)cc5)CC4)ccc3C(=O)NS(=O)(=O)c3ccc(NCCCN4CCOCC4)c([N+](=O)[O-])c3)ccc21 | GST-Bcl-2 (Homo sapiens (Human)) | lo |
| O=C(NS(=O)(=O)c1ccc(NCCCN2CCOCC2)c([N+](=O)[O-])c1)c1ccc(N2CCN(Cc3ccccc3-c3ccc(Cl)cc3)CC2)cc1Oc1cccc(OCc2ccccc2)c1 | GST-Bcl-2 (Homo sapiens (Human)) | lo |
| CN1CCC(Nc2ccc(S(=O)(=O)NC(=O)c3ccc(N4CCN(CC5=C(c6ccc(Cl)cc6)CC(C)(C)CC5)CC4)cc3Oc3cccc(F)c3F)cc2[N+](=O)[O-])CC1 | GST-Bcl-2 (Homo sapiens (Human)) | hi |

Data provenance is patent US8952157B2.
